Below are log10 of IC50 measurements against Matrix metalloproteinase-9 (Homo sapiens, UniProt P14780) drawn from the literature.
Sequence (P14780 whole entry): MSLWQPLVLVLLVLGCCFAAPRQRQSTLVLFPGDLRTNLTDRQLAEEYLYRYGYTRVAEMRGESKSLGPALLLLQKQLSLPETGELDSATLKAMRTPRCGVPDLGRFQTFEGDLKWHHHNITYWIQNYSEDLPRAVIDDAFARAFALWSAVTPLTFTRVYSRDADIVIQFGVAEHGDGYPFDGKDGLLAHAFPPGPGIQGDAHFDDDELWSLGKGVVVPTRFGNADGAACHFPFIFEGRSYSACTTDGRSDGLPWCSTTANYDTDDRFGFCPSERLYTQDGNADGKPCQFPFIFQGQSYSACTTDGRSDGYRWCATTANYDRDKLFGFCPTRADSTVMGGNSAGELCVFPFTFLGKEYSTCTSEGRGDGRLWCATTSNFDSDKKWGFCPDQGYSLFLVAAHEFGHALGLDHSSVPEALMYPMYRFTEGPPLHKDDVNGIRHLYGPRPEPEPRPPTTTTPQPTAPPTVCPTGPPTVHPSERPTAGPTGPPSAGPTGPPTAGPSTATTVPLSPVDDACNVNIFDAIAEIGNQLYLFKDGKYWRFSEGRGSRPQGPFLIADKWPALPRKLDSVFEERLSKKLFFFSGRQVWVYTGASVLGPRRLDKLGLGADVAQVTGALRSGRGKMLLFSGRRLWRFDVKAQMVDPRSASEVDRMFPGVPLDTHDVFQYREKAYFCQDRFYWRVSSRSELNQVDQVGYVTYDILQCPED
Values reflect log10 of reported IC50 (nM).

>>> df
                                   compound  measured
0  O=C1NC(=O)[C@](CNC(=O)c2cc3cc(C(F)(F)F)ccc3o2)(C2CC2)N1      4.28
1  COc1ccc(S(=O)(=O)N(CC(C)C)C(CCSCc2ccc(-c3ccccc3)cc2)C(=O)NO)cc1 (stereo not given)     -0.70
2             CC(C)=CCOC(=O)c1cccc(=O)[nH]1      4.84
3  CC(C)C[C@H](N[C@H](CCN1C(=O)c2cc3ccccc3cc2C1=O)C(=O)O)C(=O)NCc1cccnc1      1.56

Which value of log10 of IC50 has been reported for O=C(c1cc2ccc(C3CC3)cc2[nH]1)N1CCc2ocnc2C1 in the records?
3.04
